Test system: HepG2
Experiment: Cytotoxicity against human HepG2 cells
Type: functional, cell-based
parameter measured: IC50 (µM)
State the answer as a number, implicitly in µM.

// solved cases for IC50 follow
O=C(O)C[C@@]12Oc3c(O)c(O)cc(C(=O)OC[C@H]4O[C@@H](OC(=O)/C=C/c5ccc(O)c(O)c5)[C@H](O)[C@@H](O)[C@@H]4O)c3[C@@H]1[C@H](C(=O)O)OC2=O : 18
O=C(O)C[C@@H]1C(=O)O[C@H]2[C@H](O)[C@@H](O)[C@H](OC(=O)/C=C/c3ccc(O)c(O)c3)O[C@@H]2COC(=O)c2cc(O)c(O)c3c2[C@H]1C(=O)O3 : 48.4

Lookup: Assign IC50 to the following record: O=C(O[C@@H]1O[C@H](COC(=O)[C@H]2CC(=O)c3oc(=O)c4cc(O)c(O)c(O)c4c32)[C@@H](O)[C@H](OC(=O)c2cc(O)c(O)c(O)c2)[C@H]1O)c1cc(O)c(O)c(O)c1
Found: 4.22

Lookup: Indicate its recorded IC50; the molecule in question is O=C(/C=C/c1ccc(O)c(O)c1)O[C@@H]1O[C@H](COC(=O)[C@H]2CC(=O)c3oc(=O)c4cc(O)c(O)c(O)c4c32)[C@@H](O)[C@H](O)[C@H]1O
Found: 17.4

Lookup: Please indicate IC50 recorded for O=c1[nH]cc(F)c(=O)[nH]1
Found: 18.7
